Tested on: MOLT-4 leukemia
Protocol Description: NCI tumour cell line growth inhibition, 48 h
Assay Endpoint: TGI (µM)
Write down the numeric answer in µM and omit the unit.

Structure String	Measured Target	Output Unit	TGI
CC[N+](CC)=c1ccc2nc3c(cc(N)c4ccccc43)oc-2c1	MOLT-4 leukemia	µM	0.334

Req: Given the entry COc1cccc(-c2nc3sccn3c2-c2ccnc(NCCNC(=O)Nc3cccc(C(F)(F)F)c3)n2)c1 , what TGI was observed with MOLT-4 leukemia?
Resp: 9.94

Req: Given the entry Cc1[nH]c(-c2ccccc2)c(-c2ccc(Cl)cc2)c1C(=O)ONC(=O)c1ccccc1 , what TGI was observed with MOLT-4 leukemia?
Resp: 6.97

###

System: KM12 colon
Protocol Description: NCI tumour cell line growth inhibition, 48 h; in the data active = GI50 below about 0.43 µM; inactive = the rest
# output must be one of Y (active), N (inactive)

Molecule	Discrete Label
Cc1ccc(C(=O)c2oc3ccc4c(C)cc(=O)oc4c3c2C)cc1	N

Req: Field: outcome | Entry: COc1cccc(-c2nc3sccn3c2-c2ccnc(NCCNC(=O)Nc3cccc(C(F)(F)F)c3)n2)c1
Resp: N

Req: Field: outcome | Entry: O=C(Oc1ccc(O)c2c(=O)n3c(cc12)[nH]c1ccccc13)c1ccccc1
Resp: N

Req: Field: outcome | Entry: Nc1c(C(=O)c2ccccc2)sc2nc(-c3cccs3)ccc12
Resp: Y

Req: Field: outcome | Entry: S=C(Nc1ccc(-c2nc3ccccc3[nH]2)cc1)NC1CCCCC1
Resp: N

Req: Field: outcome | Entry: CC1=CSC2=NC(c3ccc(Cl)c(Cl)c3)=CC(c3ccc(Cl)cc3)N12 (centres undefined)
Resp: N

###

Each record here notes measured TGI.
Test system: MCF7 breast
Protocol Description: NCI tumour cell line growth inhibition, 48 h

Compound	TGI
CCCCN(c1ccccc1)c1ncnc2c1cnn2C	> 100 µM
Cc1ccc2c(c1)OC1Nc3ccccc3C1=C2O (centres undefined)	45.9 µM
CCOC(=O)C(O)(NC(C)=O)C(F)(F)F (centres undefined)	> 100 µM

Req: Given the entry CSc1ncc2c(n1)-c1ccccc1OC2N1CCCC1 (centres undefined) , what TGI was observed with MCF7 breast?
Resp: > 100 µM

Req: Given the entry O=C1OS2(OCc3cccc4cccc2c34)c2ccccc21 (centres undefined) , what TGI was observed with MCF7 breast?
Resp: > 100 µM

Req: Given the entry CN(C(=O)c1ccc(Cl)s1)C(=S)N(C)C(=O)c1ccc(Cl)s1 , what TGI was observed with MCF7 breast?
Resp: > 10 µM

Req: Given the entry O=C(Nc1cccc(-c2cn3ccccc3n2)c1)c1ccncc1 , what TGI was observed with MCF7 breast?
Resp: > 100 µM

Req: Given the entry CCOP(=O)(OCC)C(Nc1ccc(F)cc1)c1cccc([N+](=O)[O-])c1 (centres undefined) , what TGI was observed with MCF7 breast?
Resp: > 100 µM

Req: Given the entry Cc1[nH]c(-c2ccccc2)c(-c2ccc(Cl)cc2)c1C(=O)ONC(=O)c1ccccc1 , what TGI was observed with MCF7 breast?
Resp: 28 µM

Req: Given the entry OC1OC(c2ccco2)C(F)(F)C(F)(F)C1(F)F (centres undefined) , what TGI was observed with MCF7 breast?
Resp: > 100 µM

Req: Given the entry NC(=O)c1c[se]c(C2OC(CO)C(O)C2O)n1 (centres undefined) , what TGI was observed with MCF7 breast?
Resp: > 100 µM

###

Test system: MOLT-4 leukemia
Protocol Description: NCI tumour cell line growth inhibition, 48 h; in the data active = GI50 below about 0.43 µM; inactive = the rest
# output must be one of class 1 for active, class 0 for inactive

Answered cases to consult:
CN1CCN(Cc2ccc(NC(=O)c3cncc(C#Cc4cnc(N)c5ccc(F)cc45)c3)cc2C(F)(F)F)CC1 class 0
COc1cccc(-c2nc3sccn3c2-c2ccnc(NCCNC(=O)Nc3cccc(C(F)(F)F)c3)n2)c1 class 0
COc1cc(-c2cnn(C)c2)ccc1Nc1ncc2ccnc(N[C@@H](C)C(C)(C)C)c2n1 class 0
COc1cc2c(cc1C)NC(=O)/C2=C\c1cc(OC)c(OC)c(OC)c1 class 0
COc1cc(OC)c(/C=C/c2ccc3ccccc3[n+]2C)c(OC)c1 class 0

Req: Field: outcome | Entry: COc1ccc2c(c1)sc1nc(-c3ccccc3)c(-c3ccsc3)n12
Resp: class 0

Req: Field: outcome | Entry: COc1cc(/C=C/c2cc(C(F)(F)F)[nH]c(=O)n2)ccc1OCc1ccccc1F
Resp: class 0

Req: Field: outcome | Entry: COc1c/c(=C2/C=c3ccccc3=N2)[nH]/c1=C/c1[nH]c(C)cc1C
Resp: class 1

Req: Field: outcome | Entry: CC(C)c1ccc(Cc2cnc(NC(=O)c3cc(Br)cs3)s2)cc1
Resp: class 0

Req: Field: outcome | Entry: Clc1nc(Oc2ccccc2)nc(-c2cn(-c3ccccc3)c3ccccc23)n1
Resp: class 0

###

Test system: SK-MEL-5 melanoma
Protocol Description: NCI tumour cell line growth inhibition, 48 h; in the data active = GI50 below about 0.43 µM; inactive = the rest
# output must be one of active, inactive

Answered cases to consult:
Compound	Discrete Label
O=C1c2cc(Br)ccc2-c2c1c1ccc([N+](=O)[O-])cc1c(=O)n2CCCCl	active
COc1cc([C@H](C)c2ccc3ccccc3c2)cc(OC)c1OC	active
COc1cc(OC2OC(C)C(O)C(O)C2O)cc2oc(-c3ccc(O)cc3)c(CC=C(C)C)c(=O)c12 (stereo not given)	inactive
Cc1ccc(C(=O)c2oc3ccc4c(C)cc(=O)oc4c3c2C)cc1	inactive
c1ccc2c(c1)[I+]c1ccccc1-2	inactive
CN(C)CCNc1nc2ccccc2c2c1c1c(n2Cc2ccccc2)-c2ccccc2C1=O	inactive
COc1cc(OC)c(/C=C/c2ccc3ccccc3[n+]2C)c(OC)c1	inactive
COc1ccc(/C=C/c2cc(OC)c(OC)c(OC)c2)cc1NC(=O)/C=C/c1ccc(F)cc1	inactive
COc1c/c(=C2/C=c3ccccc3=N2)[nH]/c1=C/c1[nH]c(C)cc1C	active

Could you now consider this next compound?
Req: Field: outcome | Entry: C=CCn1c(C)nc2cc(Nc3nc(Nc4ccc5nc(C)n(CC=C)c5c4)c4ccccc4n3)ccc21
Resp: inactive

###

Tested on: COLO 205 colon
Protocol Description: NCI tumour cell line growth inhibition, 48 h
Assay Endpoint: TGI (µM)
Write down the numeric answer in µM and omit the unit.

Req: Given the entry COc1cc(/C=C/c2cc(C(F)(F)F)[nH]c(=O)n2)ccc1OCc1ccccc1F , what TGI was observed with COLO 205 colon?
Resp: 33.9

Req: Given the entry O=C(Nc1ccccc1)c1ccc(Cl)c([N+](=O)[O-])c1 , what TGI was observed with COLO 205 colon?
Resp: 70

Req: Given the entry Clc1nc(Oc2ccccc2)nc(-c2cn(-c3ccccc3)c3ccccc23)n1 , what TGI was observed with COLO 205 colon?
Resp: 24.6

Req: Given the entry COc1ccc(NC2Oc3cc4c(cc3C(c3cc(OC)c(O)c(OC)c3)C2C)OCO4)cc1 (stereo unspecified) , what TGI was observed with COLO 205 colon?
Resp: 39

Req: Given the entry CC(C)(C)N1Cc2ccccc2/C(=C/Sc2ccccc2)C1=O , what TGI was observed with COLO 205 colon?
Resp: 39

###

Each record here notes measured TGI.
Tested on: EKVX NSCLC
Protocol Description: NCI tumour cell line growth inhibition, 48 h
Where a SMILES comes first, the peptide text is derived from it. [ ]: non-standard residue; d: D form. The star is where a group is joined. Cbz = O=C(OCc1ccccc1)*; Boc = CC(C)(C)OC(=O)*; Aib = CC(C)(N)C(=O)O; OBn = c1ccc(CO*)cc1; OtBu = CC(C)(C)O*; βAla = NCCC(=O)O

Compound	TGI
OC1OC(c2ccco2)C(F)(F)C(F)(F)C1(F)F (stereo not given)	> 100 µM
Cc1c(CCCl)c(=O)n2c([nH]c3ccccc32)c1C#N	3.65 µM
O=c1oc2ccccc2c(O)c1/C=N\c1nc(-c2ccccc2)cs1	42.6 µM

Req: Given the entry CC(C)(C)OC(=O)CC(NC(=O)OC(C)(C)C)C(=O)NC(CCCCNC(=O)OCc1ccccc1)C(=O)NC(C)(C)C(=O)NCCC(=O)OCc1ccccc1 (stereo not given) (Boc-D(OtBu)K(Cbz)[Aib][βAla]-OBn; configuration not given here) , what TGI was observed with EKVX NSCLC?
Resp: > 100 µM

Req: Given the entry CC(C)(C)OC(=O)N1C(OP(=O)(Oc2ccccc2)Oc2ccccc2)=COc2cccnc21 , what TGI was observed with EKVX NSCLC?
Resp: > 100 µM

Req: Given the entry CC(=O)CC1CCC(=O)CCC(=O)OC(CC(C)=O)CCC(=O)CCC(=O)O1 (stereo not given) , what TGI was observed with EKVX NSCLC?
Resp: > 100 µM

###

System: NCI/ADR-RES ovarian
Protocol Description: NCI tumour cell line growth inhibition, 48 h; in the data active = GI50 below about 0.43 µM; inactive = the rest
# output must be one of True = active, False = inactive

Answered cases to consult:
Molecule	Discrete Label
O=C(Nc1ccc(Cl)cc1)Nc1ccc(Cl)c(Cl)c1	False
CC(=O)Oc1cc(C)ccc1[C@]1(C)CC[C@H](C)/C1=C\Br	False

Req: Field: outcome | Entry: COc1cc([C@H](C)c2ccc3ccccc3c2)cc(OC)c1OC
Resp: True

Req: Field: outcome | Entry: CC(C)c1ccc(Cc2cnc(NC(=O)c3cc(Br)cs3)s2)cc1
Resp: False

Req: Field: outcome | Entry: COc1cc2c(cc1C)NC(=O)/C2=C\c1cc(OC)c(OC)c(OC)c1
Resp: False

Req: Field: outcome | Entry: COc1cc(-c2cnn(C)c2)ccc1Nc1ncc2ccnc(N[C@@H](C)C(C)(C)C)c2n1
Resp: False

Req: Field: outcome | Entry: CC1=CSC2=NC(c3ccc(Cl)c(Cl)c3)=CC(c3ccc(Cl)cc3)N12 (stereo not drawn)
Resp: False

Req: Field: outcome | Entry: CC[N+](CCCCCCCCCC[N+](CC)(c1ccccn1)c1ccccn1)(c1ccccn1)c1ccccn1
Resp: False

Req: Field: outcome | Entry: CCCCNc1nc(NC(C)(C)C)nc(NC(C)(C)C)n1
Resp: False

Req: Field: outcome | Entry: CCOc1ccc(/C=C/C(=O)c2ccccc2)cc1
Resp: False

Req: Field: outcome | Entry: Oc1ccc(Br)cc1Sc1cc(Br)ccc1O
Resp: False

Req: Field: outcome | Entry: COc1cc2nc(-c3ccc(C(F)(F)F)cc3)cc(OCCCN3CCOCC3)c2cc1OC
Resp: False

Req: Field: outcome | Entry: Cc1cc(/C=C2\SC(=Nc3ccccc3)N(C3CCCC3)C2=O)c(C)n1-c1ccc(Cl)cc1
Resp: False

Req: Field: outcome | Entry: COc1cc(OC2OC(C)C(O)C(O)C2O)cc2oc(-c3ccc(O)cc3)c(CC=C(C)C)c(=O)c12 (stereo not drawn)
Resp: False

Req: Field: outcome | Entry: Clc1nc(Oc2ccccc2)nc(-c2cn(-c3ccccc3)c3ccccc23)n1
Resp: False

Data provenance: PubChem BioAssay (NCI)
